Provenance of the data: patent US20240092922A1

- assay_system: T1, Histidine-tagged human 4-1BB protein (h4-1BB-His) (human, UniProt Q07011 24-186)
- T1 construct: not shown: histidine tag
- experimental_protocol: SPR (Biacore T200), antibody on Protein A chip, h4-1BB-His injected;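 also: dissociation phase followed for 300 s, Kd derived as koff divided by kon from the kinetic fit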
measured_attribute: koff (s⁻¹)
# value in s⁻¹; strip the unit string

### Prompt Suppose we examine the binder 6A5-H3K3-IgG2 (antibody, V domains shown, humanized) VH: QVQLVQSGAEVKKPGSSVKLSCKASGYTFSSYWINWVKQAPGQGLEWIGNIYPSDSYTNYNQKFKDKATLTVDKSTSTAYMELSSLRSEDTAVYYCTRTWEFYYDSVFDYWGQGTTLTVSS VL: DIQMTQSPSSLSASLGERVTITCKASQDINSYLSWFQQKPGKAPKTLIYRANRLVDGVPSRFSGSGSGQDFTLTISSLQPEDIATYYCLQYDELPPTFGGGTKVEIK ; what koff value has been reported?
### Response 0.000538

### Prompt Suppose we examine the binder 45-8E11-mHvKv-IgG2 (antibody, V domains shown) VH: EVQLQQSGTVLARPGASVKMSCKASGYSFTSNWMHWVKQRPGQGLEWIGVIYPGNSDTSYNQKFKGKAKLTAVTSASTAYMELSSLTNEDSAVYYCTRGITTAPEYWGQGTTLTVSS VL: NIVMTQSPKSMSMSVGERVTLSCKASENVGIYVSWYQQKPEQSPKLLIYGASNRYTGVPDRFTGSGSATDFTLTISSVQPEDLADYHCGHTYNYPFTFGSGTKLEIK ; what koff value has been reported?
### Response 0.000127

### Prompt Suppose we examine the binder 6A5-H3K1-IgG2 (antibody, V domains shown, humanized) VH: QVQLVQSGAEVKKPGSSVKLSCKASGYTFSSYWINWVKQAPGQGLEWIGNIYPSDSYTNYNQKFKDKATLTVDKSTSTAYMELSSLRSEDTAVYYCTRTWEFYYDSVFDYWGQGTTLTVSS VL: DIQMTQSPSSLSASLGERVTITCKASQDINSYLSWYQQKPGKAPKLLIYRANRLVDGVPSRFSGSGSGQDFTLTISSLQPEDIATYYCLQYDELPPTFGGGTKVEIK ; what koff value has been reported?
### Response 0.00181

### Prompt Suppose we examine the binder 1C4-H2K1-IgG4 (antibody, V domains shown, humanized) VH: QVQMVQSGAEVKKPGASVKLSCKASGFTFSSSYINWLRQAPGQSLEWIGWIFAGTGGTYYNQKFTGRVQITRDTSASTAYMELSSLRSEDTAIYYCARHSPRATLFDFWGQGTTLTVSS VL: EIVLTQSPATLSLSPGERATLSCRASSSVNHMHWYQQKPGQAPRALIYATSNLASGIPARFSGSGSGTSFTLTISSLEPEDFAVYYCQQWSSNPYTFGGGTKLEIK ; what koff value has been reported?
### Response 0.000502

### Prompt Suppose we examine the binder 6A5-H3K2-IgG2 (antibody, V domains shown, humanized) VH: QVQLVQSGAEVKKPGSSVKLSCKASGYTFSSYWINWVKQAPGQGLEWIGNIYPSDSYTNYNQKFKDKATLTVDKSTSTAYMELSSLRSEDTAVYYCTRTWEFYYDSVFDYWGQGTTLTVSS VL: DIQMTQSPSSLSASLGERVTITCKASQDINSYLSWYQQKPGKAPKTLIYRANRLVDGVPSRFSGSGSGQDFTLTISSLQPEDIATYYCLQYDELPPTFGGGTKVEIK ; what koff value has been reported?
### Response 0.000825

### Prompt Suppose we examine the binder 16-1C4-mHvKv-IgG4 (antibody, V domains shown) VH: QGQMQQSGAELVKPGASVKLSCKTSGFTFSSSYINWLKQKPGQSLEWIAWIFAGTGGTYYNQKFTGKAQLTVDTSSGTAYMQFSSLTTEDSAIYYCARHSPRATLFDFWGQGTTLTVSS VL: QIVLSQSPAILSASPGEKVTMTCRASSSVNHMHWYQQRTGFSPKAWIYATSNLASGVPARFSGSGSGTSYSLTISRVEAEDAATYYCQQWSSNPYTFGGGTKLEIK ; what koff value has been reported?
### Response 0.000502

### Prompt Suppose we examine the binder 5F9-H3K1-IgG4 (antibody, V domains shown, humanized) VH: QVQLKESGPGLVKPSETLSITCTVSGFSLTTYDISWVRQPPGKGLEWLGVIWTGGGTNYNSSFMSRVTISKDNSKNQVSLKLSSVTAADTAIYYCERVDYWGQGTTLTVSS VL: DVVMTQSPLSLPVTLGQPASISCRSSQSLVHSNGNTYLHWFQQRPGQSPRLLIYKVSNRFSGVPDRFSGSGSGTAFTFKISRVEAEDVGVYYCSQNTHVPWTFGGGTKVEIK ; what koff value has been reported?
### Response 0.00242

### Prompt Suppose we examine the binder 45-7E9-mHvKv-IgG2 (antibody, V domains shown) VH: QVQLKQSGPGLVQPSQSLSITCTVSGFSLTTYGVHWVRQPPGKGLEWLGVIWSDGNTDYNDAFISRLSITKDNSTSQVFFKMNGLQADDTAIYYCARNSITSVSFDCWGQGTTLTVSS VL: DIVMTQSQKFMSTSVGDRVSVTCKASQNVGTTVAWYQQRPGQSPKALICSASYRYSGVPDRFTGSGSGTDFTLTISNVQSEDLAEYFCQQYNSYPLTFGSGTKLEIK ; what koff value has been reported?
### Response 0.00916
